molecular target: human Sirt3 (Homo sapiens, UniProt Q9NTG7); construct: human Sirt3 (residues 114-380); 6x His tag with TEV protease cleavage site (N); made in house; host or cells: E. coli BL21DE3 Rosetta 2; assay: Binding analysis by microscale thermophoresis, Sirt3; conditions: 25 µM substrate peptide; read-out: Kd for NAD^+ under peptide saturation
Sequence (Q9NTG7 114-380): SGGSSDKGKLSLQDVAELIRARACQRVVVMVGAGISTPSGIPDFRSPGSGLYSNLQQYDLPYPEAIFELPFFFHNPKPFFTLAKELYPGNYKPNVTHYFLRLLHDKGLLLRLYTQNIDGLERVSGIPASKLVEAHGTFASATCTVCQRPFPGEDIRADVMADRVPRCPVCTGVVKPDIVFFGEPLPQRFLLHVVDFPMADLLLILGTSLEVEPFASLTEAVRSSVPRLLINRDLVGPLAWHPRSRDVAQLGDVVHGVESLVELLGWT
pKd: −log10 of the molar value.
measurement-label: pKd

compound="NC(=O)c1ccc[n+]([C@@H]2O[C@H](COP(=O)([O-])OP(=O)(O)OC[C@H]3O[C@@H](n4cnc5c(N)ncnc54)[C@H](O)[C@@H]3O)[C@@H](O)[C@H]2O)c1 [NAD^+]" measurement_label=pKd observed_value=3.59

* * *

biological target: Sir2Af2-Met70Arg (Archaeoglobus fulgidus, UniProt O30124, M70R); assay: MS-based peptide deacylation assay, Sir2Af2-Met70Arg variant; settings: IC50 nicotinamide inhibition, deacetylase activity, acetylated Prx1-Lys197
measurement-label: IC50

compound="NC(=O)c1cccnc1 [nicotinamide]" tested_system="Sir2Af2-Met70Arg (Archaeoglobus fulgidus, UniProt O30124, M70R)" observed_value="> 10 mM"

* * *

biological target: human Sirt3 (Homo sapiens, UniProt Q9NTG7); construct: human Sirt3 (residues 114-380); 6x His tag with TEV protease cleavage site (N); made in house; host or cells: E. coli BL21DE3 Rosetta 2; test: Binding analysis by microscale thermophoresis, Sirt3; details: in presence of 0.5 mM nicotinamide; read-out: Kd(NAD^+)
pKd: −log10 of the molar value.
measurement-label: pKd

smiles=NC(=O)c1ccc[n+]([C@@H]2O[C@H](COP(=O)([O-])OP(=O)(O)OC[C@H]3O[C@@H](n4cnc5c(N)ncnc54)[C@H](O)[C@@H]3O)[C@@H](O)[C@H]2O)c1 tested_system="human Sirt3 (Homo sapiens, UniProt Q9NTG7)" measurement_label=pKd observed_value=3.08

* * *

target: Sir2Af2-Met70Arg (Archaeoglobus fulgidus, UniProt O30124, M70R); test: MS-based peptide deacylation assay, Sir2Af2-Met70Arg variant; conditions: IC50 nicotinamide inhibition, desuccinylase activity, succinylated Prx1-Lys197
measurement-label: IC50 (µM)

compound="NC(=O)c1cccnc1 [nicotinamide]" measurement_label=IC50 unit_abbrev=µM observed_value=2800

* * *

molecular target: human Sirt5 (Homo sapiens, UniProt Q9NXA8); construct: (residues 34- 302); 6x His tag with TEV protease cleavage site (N); made in house; host or cells: E. coli BL21DE3 Rosetta 2; assay: Binding analysis by microscale thermophoresis, Sirt5; conditions: in presence of 0.5 mM nicotinamide; read-out: Kd(NAD^+)
Sequence (Q9NXA8 34-302): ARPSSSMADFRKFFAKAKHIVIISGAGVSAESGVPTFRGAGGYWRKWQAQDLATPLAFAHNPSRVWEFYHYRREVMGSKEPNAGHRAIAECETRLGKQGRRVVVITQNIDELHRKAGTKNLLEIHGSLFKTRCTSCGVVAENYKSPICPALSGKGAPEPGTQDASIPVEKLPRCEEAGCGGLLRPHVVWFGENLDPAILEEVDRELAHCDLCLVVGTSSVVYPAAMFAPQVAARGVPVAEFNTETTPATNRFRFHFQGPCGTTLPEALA
measurement-label: Kd (µM)

smiles=NC(=O)c1ccc[n+]([C@@H]2O[C@H](COP(=O)([O-])OP(=O)(O)OC[C@H]3O[C@@H](n4cnc5c(N)ncnc54)[C@H](O)[C@@H]3O)[C@@H](O)[C@H]2O)c1 unit_abbrev=µM observed_value=920

* * *

target: human Sirt5 (Homo sapiens, UniProt Q9NXA8); construct: (residues 34- 302); 6x His tag with TEV protease cleavage site (N); made in house; host or cells: E. coli BL21DE3 Rosetta 2; assay: Binding analysis by microscale thermophoresis, Sirt5; details: 25 µM substrate peptide; read-out: Kd for NAD^+ under peptide saturation
measurement-label: Kd (µM)

smiles=NC(=O)c1ccc[n+]([C@@H]2O[C@H](COP(=O)([O-])OP(=O)(O)OC[C@H]3O[C@@H](n4cnc5c(N)ncnc54)[C@H](O)[C@@H]3O)[C@@H](O)[C@H]2O)c1 tested_system="human Sirt5 (Homo sapiens, UniProt Q9NXA8)" measurement_label=Kd observed_value=200

* * *

target: Sir2Af2 (Archaeoglobus fulgidus, UniProt O30124); construct: host or cells: E. coli BL21DE3 Rosetta2; test: MS-based peptide deacylation assay, Sir2Af2 wt; assay type: biochemical; details: IC50 nicotinamide inhibition, acetyl-Prx1 substrate
measurement-label: IC50 (µM)

molecule="NC(=O)c1cccnc1 [nicotinamide]" measurement_label=IC50 unit_abbrev=µM observed_value=1300

* * *

Target: Sir2Af2 (Archaeoglobus fulgidus, UniProt O30124)
Construct: host or cells: E. coli BL21DE3 Rosetta2
Sequence (O30124 1-253): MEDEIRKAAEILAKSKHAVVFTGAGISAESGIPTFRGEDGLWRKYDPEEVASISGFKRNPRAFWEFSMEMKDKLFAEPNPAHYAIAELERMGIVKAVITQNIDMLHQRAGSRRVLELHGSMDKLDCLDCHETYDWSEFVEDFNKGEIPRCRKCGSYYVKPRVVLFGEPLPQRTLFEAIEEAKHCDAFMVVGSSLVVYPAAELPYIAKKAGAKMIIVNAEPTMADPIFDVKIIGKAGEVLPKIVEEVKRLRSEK
Experiment: MS-based peptide deacylation assay, Sir2Af2 wt
Format: biochemical
Conditions: IC50 nicotinamide inhibition, succinyl-Prx1 substrate
measurement-label: IC50

molecule="NC(=O)c1cccnc1 [nicotinamide]" observed_value="> 10 mM"

* * *

Molecular target: Sirt5Zf (Danio rerio)
Construct: zebrafish Sirt5 (residues 30- 298); 6x His tag with TEV protease cleavage site (N)
Sequence (Q6DHI5 30-298): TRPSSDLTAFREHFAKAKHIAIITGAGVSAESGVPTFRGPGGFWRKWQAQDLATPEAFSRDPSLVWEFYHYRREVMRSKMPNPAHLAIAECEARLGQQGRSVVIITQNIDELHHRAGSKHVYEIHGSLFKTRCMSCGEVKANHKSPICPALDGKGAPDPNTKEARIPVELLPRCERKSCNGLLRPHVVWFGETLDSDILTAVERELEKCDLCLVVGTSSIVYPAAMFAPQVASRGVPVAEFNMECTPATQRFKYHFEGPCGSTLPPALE
Assay: MS-based peptide deacylation assay, zebrafish Sirt5
Conditions: deacetylation, CPS1 peptide (Fig. S3)
measurement-label: IC50 (mM)

compound="NC(=O)c1cccnc1 [nicotinamide]" measurement_label=IC50 observed_value=6.9

* * *

Target: Sir2Af2 (Archaeoglobus fulgidus, UniProt O30124)
Construct: host or cells: E. coli BL21DE3 Rosetta2
Sequence (O30124 1-253): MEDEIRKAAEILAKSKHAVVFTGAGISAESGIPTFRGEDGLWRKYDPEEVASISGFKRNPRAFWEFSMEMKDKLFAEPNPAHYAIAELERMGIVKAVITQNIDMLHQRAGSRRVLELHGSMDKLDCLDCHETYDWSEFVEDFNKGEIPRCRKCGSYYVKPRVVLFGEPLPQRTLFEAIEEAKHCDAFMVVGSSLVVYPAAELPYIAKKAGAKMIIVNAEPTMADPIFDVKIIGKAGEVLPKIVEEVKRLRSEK
Assay: MS-based peptide deacylation assay, Sir2Af2 wt
Format: biochemical
Conditions: IC50 nicotinamide inhibition, acetyl-CPS1 substrate
pIC50: −log10 of the molar value.
measurement-label: pIC50

compound="NC(=O)c1cccnc1 [nicotinamide]" tested_system="Sir2Af2 (Archaeoglobus fulgidus, UniProt O30124)" measurement_label=pIC50 observed_value=2.24

* * *

target: human Sirt3 (Homo sapiens, UniProt Q9NTG7); construct: human Sirt3 (residues 114-380); 6x His tag with TEV protease cleavage site (N); made in house; host or cells: E. coli BL21DE3 Rosetta 2; assay: Binding analysis by microscale thermophoresis, Sirt3; details: no nicotinamide, no peptide; read-out: Kd(NAD^+)
measurement-label: Kd (µM)

smiles=NC(=O)c1ccc[n+]([C@@H]2O[C@H](COP(=O)([O-])OP(=O)(O)OC[C@H]3O[C@@H](n4cnc5c(N)ncnc54)[C@H](O)[C@@H]3O)[C@@H](O)[C@H]2O)c1 observed_value=710
